# System: NCI-H23 lung
# assayInfo: NCI tumour cell line growth inhibition, 48 h
attributeMeasured: log10 of TGI (log10 of the value in µM)

[[record]]
compound = "O=C1/C(=C/C=C/c2ccccc2)N=C(c2ccccc2)N1c1ccc(S(=O)(=O)Nc2nccs2)cc1"
measuredvalue = 1.80

[[record]]
compound = "CC1OC(CC(=O)O)Cc2c1c(O)c1c(O)cc(-c3cc(=O)c4c(=O)c5c(c(=O)c=4c3=O)CC(CC(=O)O)OC5C)c(O)c1c2O (stereo not given)"
measuredvalue = 1.53

[[record]]
compound = "CN=c1ssc(=S)n1C(C)C"
measuredvalue = 1.91

[[record]]
compound = "COCN1C(=N)C(C(=O)OC(C)(C)C)=C2C=C(O)C=CC21C (stereo not given)"
measuredvalue = 1.48

[[record]]
compound = "CN1c2c(nc(N)[nH]c2=O)NCC1CCNc1ccc(C(=O)NC(CCC(=O)O)C(=O)O)cc1 (stereo not given)"
measuredvalue = 3.56


----------
# Tested on: SK-MEL-2 melanoma
# assayInfo: NCI tumour cell line growth inhibition, 48 h
attributeMeasured: TGI (µM)

[[record]]
compound = "O=C1/C(=C/c2ccc(F)cc2)CN(C(=O)C(Cl)Cl)C/C1=C\\c1ccc(F)cc1"
boundoperator = "="
measuredvalue = 2.9

[[record]]
compound = "CN1c2c(nc(N)[nH]c2=O)NCC1CCNc1ccc(C(=O)NC(CCC(=O)O)C(=O)O)cc1 (stereo not given)"
boundoperator = "="
measuredvalue = 3050

[[record]]
compound = "CC(=O)OC12CC[N+]3(C)CCCCC3C1=Nc1ccccc12 (stereo not given)"
boundoperator = ">"
measuredvalue = 100

[[record]]
compound = "N#Cc1ccc([N+](=O)[O-])cc1NC(N)=S"
boundoperator = ">"
measuredvalue = 100

[[record]]
compound = "COc1ccc([Se][Se]c2ccc(OC)cc2OC)c(OC)c1"
boundoperator = "="
measuredvalue = 20.8

[[record]]
compound = "CCO[C@H]1O[C@@H]2OC3(C)CCC4[C@H](C)CCC([C@H]1C)[C@]42OO3 (stereo not given in full)"
boundoperator = ">"
measuredvalue = 100

[[record]]
compound = "CCOP(=O)(Nc1ccc(-c2ccc(N)cc2)cc1)OCC"
boundoperator = ">"
measuredvalue = 100

[[record]]
compound = "CSc1ccc2c(cc1=O)C(NC(=O)c1ccccc1)CCc1cc(O)c(O)c(O)c1-2 (stereo not given)"
boundoperator = ">"
measuredvalue = 100

[[record]]
compound = "O=C1CCCCN1"
boundoperator = ">"
measuredvalue = 1120

[[record]]
compound = "CC[C@]12C=CCN3CC[C@@]4(c5ccc(OC)cc5N(C)[C@H]4[C@@](O)(C(=O)OC)[C@@H]1OC(=O)CCC(=O)O[C@H]1CC[C@H]4[C@@H]5CC[C@H]6CC(=O)CC[C@]6(C)[C@H]5CC[C@]14C)[C@@H]32"
boundoperator = "="
measuredvalue = 6.18


----------
# System: DLD-1 colon
# assayInfo: NCI tumour cell line growth inhibition, 48 h
Measured TGI values are reported for all entries that follow.
attributeMeasured: TGI

[[record]]
compound = "[Co].[O-]c1cccnc1C=Nc1ccccc1.[OH3+]"
measuredvalue = "> 100 µM"

[[record]]
compound = "COc1ccc(-c2cc(=O)c3cc(C)c(C)c(C(=O)O)c3o2)cc1"
measuredvalue = "> 100 µM"

[[record]]
compound = "COc1cccc(C=O)c1[O-].COc1cccc(C=O)c1[O-].[Zn+2]"
measuredvalue = "> 100 µM"

[[record]]
compound = "O=c1[nH]nc(CNc2ccc(Cl)cc2Cl)c2ccccc12"
measuredvalue = "90.6 µM"

[[record]]
compound = "COc1ccc(-c2cc(=O)c3cc(Cl)ccc3[nH]2)cc1"
measuredvalue = "> 100 µM"

[[record]]
compound = "COc1ccccc1NC(=O)C1=C(C)NC(C)=C(C(=O)Nc2ccccc2OC)C1c1ccccc1Cl"
measuredvalue = "> 100 µM"

[[record]]
compound = "Cc1cccc(N=Cc2ccc(N(CCC#N)S(=O)(=O)c3ccccc3)cc2C)c1"
measuredvalue = "> 100 µM"

[[record]]
compound = "Nc1ccn(CCOC(c2ccccc2)P(=O)(O)O)c(=O)n1 (stereo unspecified)"
measuredvalue = "> 100 µM"

[[record]]
compound = "CC[O-].CC[O-].O=C([CH-]C(=O)c1ccccc1)CCCCCCC(=O)[CH-]C(=O)c1ccccc1.[Ti+4]"
measuredvalue = "> 100 µM"

[[record]]
compound = "O=c1oc2cc(O)ccc2c2oc3cc(O)ccc3c12"
measuredvalue = "> 125 µM"

[[record]]
compound = "O=C1CCCCN1"
measuredvalue = "> 1120 µM"

[[record]]
compound = "CNS(=O)(=O)NNS(=O)(=O)c1ccc(F)cc1"
measuredvalue = "> 100 µM"

[[record]]
compound = "O=C(CC1(O)C(=O)Nc2ccccc21)c1ccc(Cl)cc1Cl (stereo unspecified)"
measuredvalue = "> 100 µM"

[[record]]
compound = "Brc1ccc(C=NC23CC4CC(CC(C4)C2)C3)cc1"
measuredvalue = "> 100 µM"

[[record]]
compound = "O=C(O[C@H]1[C@@H]2C=CO[C@@H](OC3OC(CO)C(O)C(O)C3O)[C@@H]2[C@@]2(CO)O[C@@H]12)c1ccc(O)c(O)c1 (stereo partly specified)"
measuredvalue = "> 100 µM"

[[record]]
compound = "O=C(CC1(O)C(=O)Nc2ccc([N+](=O)[O-])cc21)c1ccncc1 (stereo unspecified)"
measuredvalue = "> 100 µM"

[[record]]
compound = "O=[N+]([O-])c1cc(I)cc(/C=N/NS(=O)(=O)c2ccc(Cl)cc2)c1O"
measuredvalue = "59.4 µM"

[[record]]
compound = "C[N+](C)(C)C1CC([N+](C)(C)C)C2c3ccccc3C21 (stereo unspecified)"
measuredvalue = "> 100 µM"

[[record]]
compound = "CC(C)(C)OC(=O)N1CC(C)(C)N2C(=O)C3(CCCO3)C12 (stereo unspecified)"
measuredvalue = "> 100 µM"

[[record]]
compound = "Cc1nc(-n2nc(-c3ccccc3)cc2-c2ccccc2)sc1C(=O)/C=C/c1ccc([N+](=O)[O-])cc1"
measuredvalue = "36.2 µM"

[[record]]
compound = "CCc1ccc(Cc2ccc(CC)c(NC(=O)C(=O)C3NC(=S)NC3=O)c2CC)c(CC)c1NC(=O)C(=O)C1NC(=S)NC1=O (stereo unspecified)"
measuredvalue = "> 100 µM"


----------
# System: SK-OV-3 ovarian
# assayInfo: NCI tumour cell line growth inhibition, 48 h
attributeMeasured: TGI

[[record]]
molecule = "CCOC(=O)C(NC(=O)c1cccc(Cl)c1)(Nc1ccc(S(=O)(=O)Nc2cc(C)nc(C)n2)cc1)C(F)(F)F (stereo not given)"
attributemeasured = "TGI"
measuredvalue = "> 100 µM"

[[record]]
molecule = "Cc1nc(-n2nc(-c3ccccc3)cc2-c2ccccc2)sc1C(=O)/C=C/c1ccc([N+](=O)[O-])cc1"
attributemeasured = "TGI"
measuredvalue = "> 100 µM"

[[record]]
molecule = "CN(/N=C/c1ccccc1O)c1ccc2ccccc2n1"
attributemeasured = "TGI"
measuredvalue = "29.8 µM"

[[record]]
molecule = "COc1cc(/C=C2\\NC(=O)C3Cc4c(OC)c(C)c(OC)c(OC)c4C2N3C)c(OC)c(C)c1OC (stereo not given)"
attributemeasured = "TGI"
measuredvalue = "> 100 µM"

[[record]]
molecule = "O=c1oc2ccc(Cl)cc2c(=O)n1-c1ccc(F)cc1F"
attributemeasured = "TGI"
measuredvalue = "5.43 µM"

[[record]]
molecule = "O=C(CC1(O)C(=O)Nc2ccc([N+](=O)[O-])cc21)c1ccncc1 (stereo not given)"
attributemeasured = "TGI"
measuredvalue = "> 100 µM"

[[record]]
molecule = "CCc1ccc(Cc2ccc(CC)c(NC(=O)C(=O)C3NC(=S)NC3=O)c2CC)c(CC)c1NC(=O)C(=O)C1NC(=S)NC1=O (stereo not given)"
attributemeasured = "TGI"
measuredvalue = "> 100 µM"

[[record]]
molecule = "CCOC(=O)C(NC(=O)c1ccccc1)(c1ccc(S(=O)(=O)Nc2onc(C)c2C)cc1)C(F)(F)F (stereo not given)"
attributemeasured = "TGI"
measuredvalue = "> 100 µM"

[[record]]
molecule = "O=C(O[C@H]1[C@@H]2C=CO[C@@H](OC3OC(CO)C(O)C(O)C3O)[C@@H]2[C@@]2(CO)O[C@@H]12)c1ccc(O)c(O)c1 (stereo not given in full)"
attributemeasured = "TGI"
measuredvalue = "> 100 µM"

[[record]]
molecule = "O=C1c2ccccc2C(=O)c2c1oc1c2c(=O)[nH]c2ccc(Cl)cc21"
attributemeasured = "TGI"
measuredvalue = "1.78 µM"


----------
# Test system: SK-MEL-5 melanoma
# assayInfo: NCI tumour cell line growth inhibition, 48 h
attributeMeasured: TGI

[[record]]
compound = "CCCCC(=O)c1c(O)ccc2c(C)cc(=O)oc12"
targetentity = "SK-MEL-5 melanoma"
measuredvalue = "> 100 µM"

[[record]]
compound = "COc1ccc(C2=NN(C(C)=O)C(c3ccc(Oc4ccnc5cc(Cl)ccc45)c(OC)c3)C2)cc1 (configuration not stated)"
targetentity = "SK-MEL-5 melanoma"
measuredvalue = "> 100 µM"

[[record]]
compound = "N#Cc1sc2c(c1OC(=O)c1ccc(Cl)cc1Cl)c(=O)n(-c1ccccc1)c(=S)n2-c1ccccc1"
targetentity = "SK-MEL-5 melanoma"
measuredvalue = "34.6 µM"

[[record]]
compound = "CCCCCCCC(=O)OC[C@H](C[As](=O)(O)O)OC(=O)CCCCCCC"
targetentity = "SK-MEL-5 melanoma"
measuredvalue = "26.8 µM"

[[record]]
compound = "Cc1nn(C(=O)Cc2ccccc2)c2c1C(c1ccc([N+](=O)[O-])cc1)SC(N)=N2 (configuration not stated)"
targetentity = "SK-MEL-5 melanoma"
measuredvalue = "> 100 µM"

[[record]]
compound = "Nc1nc(SCCNC(=O)CCc2ccc(O)c(I)c2)nc2c1ncn2C1OC(CO)C(O)C1O (configuration not stated)"
targetentity = "SK-MEL-5 melanoma"
measuredvalue = "> 100 µM"

[[record]]
compound = "N#Cc1ccc(OCCSCCCCCCCCCCSCCOc2ccc(C#N)cc2)cc1"
targetentity = "SK-MEL-5 melanoma"
measuredvalue = "> 100 µM"

[[record]]
compound = "O=C(C=Nc1ccccc1S)c1ccco1"
targetentity = "SK-MEL-5 melanoma"
measuredvalue = "31.7 µM"

[[record]]
compound = "CC(=O)OC12CC[N+]3(C)CCCCC3C1=Nc1ccccc12 (configuration not stated)"
targetentity = "SK-MEL-5 melanoma"
measuredvalue = "> 100 µM"

[[record]]
compound = "CSc1ccc2c(cc1=O)C(NC(=O)c1ccccc1)CCc1cc(O)c(O)c(O)c1-2 (configuration not stated)"
targetentity = "SK-MEL-5 melanoma"
measuredvalue = "12.7 µM"

[[record]]
compound = "CC1SC2=NC3=C(c4ccccc4C3=O)C(c3ccccc3Cl)N2C1=O (configuration not stated)"
targetentity = "SK-MEL-5 melanoma"
measuredvalue = "> 100 µM"

[[record]]
compound = "O=[N+]([O-])c1ccc(N=Nc2c(Cl)cc(O)cc2Cl)cc1"
targetentity = "SK-MEL-5 melanoma"
measuredvalue = "3.55 µM"

[[record]]
compound = "CNC(=O)N1CN(c2ccccc2)C2(CCN(Cc3ccccc3)CC2)C1=O"
targetentity = "SK-MEL-5 melanoma"
measuredvalue = "> 100 µM"

[[record]]
compound = "CC1(C)N=c2cc3c(cc2N1c1ccc(Cl)cc1)=Nc1ccccc1N3c1ccc(Cl)cc1"
targetentity = "SK-MEL-5 melanoma"
measuredvalue = "20.3 µM"

[[record]]
compound = "N#CC1(C#N)[C@@H]2CCC=C(Sc3ccccc3)[C@@H]21"
targetentity = "SK-MEL-5 melanoma"
measuredvalue = "29.4 µM"

[[record]]
compound = "CC(=O)NCc1c(C(N)=O)ncn1Cc1ccccc1"
targetentity = "SK-MEL-5 melanoma"
measuredvalue = "> 100 µM"

[[record]]
compound = "O=C1OC(c2ccc(Cl)cc2)=N/C1=C\\c1ccccc1"
targetentity = "SK-MEL-5 melanoma"
measuredvalue = "> 100 µM"

[[record]]
compound = "CC(C)(C)OC(=O)NCCC1CNc2ccccc21 (configuration not stated)"
targetentity = "SK-MEL-5 melanoma"
measuredvalue = "> 100 µM"

[[record]]
compound = "Cn1c2ccccc2c2c3c(c4c5ccccc5n(C5OC(CO)C(O)C(O)C5O)c4c21)C(=O)OC3=O (configuration not stated)"
targetentity = "SK-MEL-5 melanoma"
measuredvalue = "> 100 µM"

[[record]]
compound = "O=C1c2ccccc2C(=O)c2c1oc1c2c(=O)[nH]c2ccc(Cl)cc21"
targetentity = "SK-MEL-5 melanoma"
measuredvalue = "1.21 µM"

[[record]]
compound = "O=C1c2cn[nH]c2N=C(Nc2ccccc2)C1N=Cc1ccc([N+](=O)[O-])cc1 (configuration not stated)"
targetentity = "SK-MEL-5 melanoma"
measuredvalue = "> 10 µM"

[[record]]
compound = "C=CCCCN1CCCCC1=S"
targetentity = "SK-MEL-5 melanoma"
measuredvalue = "> 100 µM"

